Biological target: human orexin type 2 receptor (hOX2R) (Homo sapiens)
Construct: expressed in transfected cells
Test: Measurement of orexin type 2 receptor agonist activity (FLIPR calcium fluorescence)
Assay type: cell-based
Details: CHO cells expressing hOX2R, FLIPR calcium fluorescence; read-out: hOx2 pEC50 (converted)
Method: The biological activity of the compounds of the present disclosure may be determined in cells stably expressing either orexin type 2 or orexin type 1 receptor. […] The agonist activity of a compound of the present disclosure may be determined by fluorescence value. Stable cell line generation. Measurement of orexin type 2 receptor agonist activity. […] As used herein, E. indicates the value at 10 μM concentration when orexin A is converted to a full agonist (maximum value of agonist activity. 100%).
For each record, write down the corresponding EC50.

Value lookup for EC50; key = CC(C)C(=O)N1CC2(CC2)[C@H](NS(C)(=O)=O)[C@@H]1Cc1cccc(-c2ccccc2)c1
10 to 100 nM

// repeat for O=C(NC[C@@H]1CCO1)N1CC2(CC2)[C@H](NS(=O)(=O)CF)[C@@H]1Cc1cccc(-c2ccccc2)c1F and report
1 to 10 nM

// repeat for O=C([C@H](O)CF)N1CC2(CC2)[C@H](NS(=O)(=O)C(F)F)[C@@H]1Cc1cccc(-c2ccccc2)c1F and report
1 to 10 nM

// repeat for [2H]C([2H])([2H])Oc1c(C[C@H]2[C@@H](NS(=O)(=O)CF)C3(CC3)CN2C(=O)NC([2H])([2H])C([2H])([2H])[2H])cccc1-c1ccccc1 and report
1 to 10 nM

// repeat for COC[C@@H](O)C(=O)N1CC2(CC2)[C@H](NS(=O)(=O)CF)[C@@H]1Cc1cccc(-c2ccccc2)c1F and report
1 to 10 nM

// repeat for CS(=O)(=O)NC1C(Cc2cccc(-c3ccccc3)c2)N(C(=O)C(F)F)CC12CC2 (racemic) and report
100 to 1000 nM

// repeat for CS(=O)(=O)N[C@@H]1[C@H](Cc2cccc(-c3ccccc3F)c2F)N(C(=O)[C@H]2CCO2)CC12CC2 and report
1 to 10 nM

// repeat for C[C@H](CF)NC(=O)N1CC2(CC2)[C@H](NS(=O)(=O)CF)[C@@H]1Cc1cc(F)cc(-c2ccccc2)c1F and report
0.0794 to 1 nM

// repeat for N#C[C@]1(C(=O)N2CC3(CC3)[C@H](NS(=O)(=O)C(F)F)[C@@H]2Cc2cccc(-c3ccccc3)c2F)CCO1 and report
1 to 10 nM

// repeat for CS(=O)(=O)NC1C(Cc2cccc(-c3ccccc3)c2F)N(C(=O)[C@H]2C[C@H](F)C2)CC12CC2 (mixture of isomers) and report
1 to 10 nM

// repeat for C[C@H](F)C(=O)N1CC2(CC2)[C@H](NS(=O)(=O)C(F)F)[C@@H]1Cc1cccc(-c2ccccc2)c1F and report
0.0794 to 1 nM

// repeat for O=C([C@H](O)CF)N1CC2(CC2)[C@H](NS(=O)(=O)C(F)F)[C@@H]1Cc1cc(F)cc(-c2cc(F)cc(F)c2)c1F and report
1 to 10 nM

// repeat for O=C(NCC1(F)CC1)N1CC2(CC2)[C@H](NS(=O)(=O)CF)[C@@H]1Cc1cc(F)cc(-c2ccccc2)c1F and report
1 to 10 nM

---

Target: human orexin type 2 receptor (hOX2R) (Homo sapiens, UniProt O43614)
Construct: expressed in transfected cells
Sequence (O43614 1-444): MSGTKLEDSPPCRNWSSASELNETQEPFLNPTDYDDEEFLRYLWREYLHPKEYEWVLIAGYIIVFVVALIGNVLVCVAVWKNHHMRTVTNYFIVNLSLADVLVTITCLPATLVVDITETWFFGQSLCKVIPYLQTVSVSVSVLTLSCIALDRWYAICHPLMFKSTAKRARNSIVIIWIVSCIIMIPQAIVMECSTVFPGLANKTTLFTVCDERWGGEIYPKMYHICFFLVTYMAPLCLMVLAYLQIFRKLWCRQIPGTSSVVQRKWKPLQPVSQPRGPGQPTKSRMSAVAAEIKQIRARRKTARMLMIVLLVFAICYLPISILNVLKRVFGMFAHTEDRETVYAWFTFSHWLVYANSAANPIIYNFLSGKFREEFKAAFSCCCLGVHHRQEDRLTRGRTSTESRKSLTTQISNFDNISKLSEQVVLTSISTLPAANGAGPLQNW
Assay: Measurement of orexin type 2 receptor agonist activity (FLIPR calcium fluorescence)
Type: cell-based
Conditions: hOx2 pEC50, CHO cells expressing hOX2R, FLIPR calcium fluorescence
property_name: EC50

Value lookup for EC50; key = CCNC(=O)N1CC2(CC2)[C@H](NS(C)(=O)=O)[C@@H]1Cc1cccc(-c2ccccc2)c1OC
1 to 10 nM
